- System: HepG2
- ASSAY COMMENT: Anti-proliferation MTT assay
- Assay type: cell-based
- COND: 48 h
MEASURED QUANTITY: IC50 (nM)
Give a bare numeral; the unit nM is implied.

Data request: Which value of IC50 has been reported for CO[C@H]1/C=C\C=C(/C)C(=O)NC2=CC(=O)C(NCCN(C)C)=C(C[C@@H](C)C[C@H](OC)[C@H](O)[C@@H](C)/C=C(\C)[C@@H]1OC(N)=O)C2=O in the records?
Data returned: 490

---

# Errors values compiled below
- TGT: Hsp90 (Homo sapiens)
- Construct: The region encoding full-length Hsp90 was subcloned into pET28a; inferred from the pET28a vector and Ni-NTA purification; made in house; host or cells: E. coli
- ASSAY COMMENT: 3D-QSAR pharmacophore model Hypo1 (HypoGen) mapping and activity estimation
- COND: ratio of estimated to tested activity or its negative inverse, training set
Answer field: number only, no words.

For orientation, consider the following solved cases.
O=C(Nc1ccccc1)c1c[nH]nc1-c1cc(Cl)c(O)cc1O ... −2.4
CCCCn1c([S+]([O-])c2cccc(OC)c2)nc2c(N)ncnc21 (stereo not drawn) ... −1
CCc1ccc(S(=O)(=O)Nc2ccc(O)c(-c3c(O)ccc4ccccc34)c2)cc1 ... −1.7

Data request: Please tell me: Errors of CCC(C)c1cc(O)c(Cl)cc1-c1n[nH]cc1C(=O)Nc1ccc(NC(C)=O)cc1 (stereo not drawn) , system Hsp90 (Homo sapiens)?
Data returned: −2.6

Data request: Please tell me: Errors of CNC(=O)c1[nH]nc(-c2cc(Cl)c(O)cc2O)c1C(=O)Nc1ccc(OC)cc1 , system Hsp90 (Homo sapiens)?
Data returned: −1.1

Data request: Please tell me: Errors of O=S(=O)(Nc1ccc(O)c(-c2c(O)ccc3ccccc23)c1)c1ccc(Br)cc1 , system Hsp90 (Homo sapiens)?
Data returned: −2.7

---

- TGT: Hsp90 (Homo sapiens, UniProt P07900)
- Construct: The region encoding full-length Hsp90 was subcloned into pET28a; inferred from the pET28a vector and Ni-NTA purification; made in house; host or cells: E. coli
- ASSAY COMMENT: Malachite green assay of Hsp90 ATPase activity
- Type: biochemical
- COND: 40 μM, colorimetric assay for inorganic phosphate; read-out: Inhibition rate (% in 40 μM)
MEASURED QUANTITY: inhibition at 40 µM (%)
Give a bare numeral; the unit % is implied.

For orientation, consider the following solved cases.
CCOC(=O)C1=C(Nc2ccc(OC)cc2)S/C(=C\c2ccc[nH]2)C1=O ... 12.6
CCCCCOc1cccc(C2C(C(=O)c3cccs3)=C(O)C(=O)N2CCN2CCOCC2)c1 (centres unmarked) ... -7.53
COc1ccc(-c2csc3ncn(CC(=O)NC4CCCCC4)c(=O)c23)cc1OC ... 42.8
Cc1ccc(S(=O)(=O)N2CCN(CC(O)COc3ccc(-c4ccccc4)cc3)CC2)cc1C (centres unmarked) ... 47.5

Data request: Which value of inhibition at 40 µM has been reported for COc1ccc(CNC(=O)CSc2nc3ccc(N)cc3s2)cc1 in the records?
Data returned: -11.6

Data request: Which value of inhibition at 40 µM has been reported for COc1ccc(-c2csc3ncn(CC(=O)Nc4ccc(C)cc4C)c(=O)c23)cc1OC in the records?
Data returned: -47.8

Data request: Which value of inhibition at 40 µM has been reported for COCCN1C(=O)C(O)=C(C(=O)c2ccc3c(c2)CC(C)O3)C1c1cccc(OC)c1 (centres unmarked) in the records?
Data returned: 48.8

Data request: Which value of inhibition at 40 µM has been reported for CCCOc1ccc(C(=O)C2=C(O)C(=O)N(Cc3cccnc3)C2c2ccccc2)cc1 (centres unmarked) in the records?
Data returned: -14.5

Data request: Which value of inhibition at 40 µM has been reported for CCOc1ccc(-c2csc3ncn(CC(=O)Nc4cc(C)ccc4C)c(=O)c23)cc1 in the records?
Data returned: 36

Data request: Which value of inhibition at 40 µM has been reported for COc1cccc(CNc2nc(SC)ncc2CO)c1 in the records?
Data returned: -6.22

Data request: Which value of inhibition at 40 µM has been reported for Cc1cccc(OCCn2c(SCC(O)CO)nc3ccccc32)c1 (centres unmarked) in the records?
Data returned: 18.9

Data request: Which value of inhibition at 40 µM has been reported for O=C(NNC1CC(=O)N(c2ccc(Br)cc2)C1=O)c1cccnc1 (centres unmarked) in the records?
Data returned: -35.1

Data request: Which value of inhibition at 40 µM has been reported for COCCCN1C(=O)C(O)=C(C(=O)c2ccc(OC(C)C)c(C)c2)C1c1cccnc1 (centres unmarked) in the records?
Data returned: 48.2
